- study-system: M18 aspartyl aminopeptidase (Plasmodium falciparum 3D7)
- experiment-description: inhibition of P. falciparum M18 aspartyl aminopeptidase – biochemical, QFRET fluorogenic substrate, dose response (AID 588678)
- particulars: recombinant PFM18AAP, H-Glu-NHMec fluorogenic substrate cleavage; at 100 µM (top of the series)
The source made the active and inactive calls.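 Rule for the calls: active = inhibition of 30% or more at any tested concentration; inactive = the rest.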
readout-type: inhibition

Answered cases to consult:
Oc1ccc(CNc2c3ccccc3nc3ccccc23)cc1O; inactive
COc1cccc(-c2nc(-c3ccc(OC)c(OC)c3)cs2)c1; inactive
COc1ccc(CCNC2CCN(C)CC2)cc1OC; inactive
O=c1cc(CO)oc(CN2CCCCC2)c1O; inactive

Please examine the following record next.
## Input What value of measured inhibition is listed for `COc1ccc(CCN(C)CCc2ccccc2)cc1OC` ?
## Output inactive
